Target: Fibroblast growth factor receptor 1 (Homo sapiens, UniProt P11362)
Sequence (P11362 whole entry): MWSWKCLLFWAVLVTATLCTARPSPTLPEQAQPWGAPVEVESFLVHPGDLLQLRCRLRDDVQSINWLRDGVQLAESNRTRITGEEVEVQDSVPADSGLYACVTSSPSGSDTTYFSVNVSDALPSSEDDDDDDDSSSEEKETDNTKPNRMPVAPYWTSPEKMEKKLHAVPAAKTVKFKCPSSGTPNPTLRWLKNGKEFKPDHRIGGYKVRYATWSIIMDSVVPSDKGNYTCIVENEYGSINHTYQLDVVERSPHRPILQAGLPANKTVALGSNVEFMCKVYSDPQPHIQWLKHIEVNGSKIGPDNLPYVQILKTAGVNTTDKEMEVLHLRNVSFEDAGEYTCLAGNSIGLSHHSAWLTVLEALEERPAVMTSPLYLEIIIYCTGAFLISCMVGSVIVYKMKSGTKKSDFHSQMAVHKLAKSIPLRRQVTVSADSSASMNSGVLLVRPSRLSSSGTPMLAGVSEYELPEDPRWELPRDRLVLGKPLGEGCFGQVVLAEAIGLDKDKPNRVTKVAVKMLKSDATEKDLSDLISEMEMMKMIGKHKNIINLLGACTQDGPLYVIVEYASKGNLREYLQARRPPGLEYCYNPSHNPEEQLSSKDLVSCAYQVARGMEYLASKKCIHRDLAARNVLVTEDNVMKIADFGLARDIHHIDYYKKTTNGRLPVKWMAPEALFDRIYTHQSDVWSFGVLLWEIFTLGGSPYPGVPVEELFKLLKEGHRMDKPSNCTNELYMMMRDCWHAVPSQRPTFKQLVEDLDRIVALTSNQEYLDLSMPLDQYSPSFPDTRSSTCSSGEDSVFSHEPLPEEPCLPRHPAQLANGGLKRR
Measurement type: IC50 (µM)
Entry rule: numbers only, all in µM.

Entry CC(C)Cn1c2ccc(Nc3ncccn3)cc2c2c3c(c4c(c21)CCc1nn(C)cc1-4)C(=O)NC3 has what IC50?
0.013

---

Assay: Volume of distribution in Sprague-Dawley rat at 0.8 mg/kg, iv
Format: ADME, organism-based
Parameters: dose 0.8 mg/kg, route intravenous
Conditions: in vivo
Measurement type: Vd

Using the record for CC(C)Cn1c2ccc(Nc3ncccn3)cc2c2c3c(c4c(c21)CCc1nn(C)cc1-4)C(=O)NC3 , report its Vd.
1.3 L/kg

---

Biological target: Muscarinic acetylcholine receptor M4 (Homo sapiens)
Sequence (P08173 whole entry): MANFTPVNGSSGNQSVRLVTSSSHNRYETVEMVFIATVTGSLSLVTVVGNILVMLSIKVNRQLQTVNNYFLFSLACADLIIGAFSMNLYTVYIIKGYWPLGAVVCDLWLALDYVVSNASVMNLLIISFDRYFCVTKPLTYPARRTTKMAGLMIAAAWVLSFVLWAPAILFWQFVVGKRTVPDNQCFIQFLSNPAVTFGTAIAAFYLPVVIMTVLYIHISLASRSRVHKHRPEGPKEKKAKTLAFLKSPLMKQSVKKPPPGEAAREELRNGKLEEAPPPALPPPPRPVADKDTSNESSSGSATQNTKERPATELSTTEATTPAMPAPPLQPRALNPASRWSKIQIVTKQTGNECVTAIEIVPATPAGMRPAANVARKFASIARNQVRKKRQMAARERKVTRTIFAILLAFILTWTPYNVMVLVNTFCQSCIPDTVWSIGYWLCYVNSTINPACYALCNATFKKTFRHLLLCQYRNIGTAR
Measurement type: pKi
Please note pKi is a logarithmic value: minus log10 of concentration in mol/L. Answer with that number alone.

What value of pKi on Muscarinic acetylcholine receptor M4 (Homo sapiens) does CC(C)Cn1c2ccc(Nc3ncccn3)cc2c2c3c(c4c(c21)CCc1nn(C)cc1-4)C(=O)NC3 [CEP-11981] have?
5.54
